- method-summary: Viability qHTS for spleen associated tyrosine kinase inhibitor (SYKi) drug resistant MV4-11 cells (AID 1963824); also: nearly all actives have a fitted effect of over 35% in size
- stated-conditions: SYKi-resistant MV4-11 viability, CellTiter-Glo, 72 h; series mostly up to 45 µM
Inconclusive results are not listed. Active and inactive are the calls of the source. Calls follow the shape of the dose curve; as a rule, active = well fitted cell-killing curve with a large enough effect; inconclusive = small, poorly fitted or top-dose-only effect, or effect the other way; inactive = no such curve, though single readings can be large or run the other way.
Result category, one only: YES = active, NO = inactive

Consider the worked cases shown below.
compound	class-name
CCCOc1ccc(-c2nc(OC)c3ccccc3n2)cc1	NO
O=C1CC(c2c[nH]c3ccc(F)cc23)C(=O)N1 (stereo not given)	NO
COc1cccc(OC)c1C(=O)N[C@@H]1C(=O)N2[C@@H]1SC(C)(C)[C@@H]2C(=O)O	NO
N#Cc1ccnc(N2C(=O)CC[C@H]2C(=O)N(c2cncc(F)c2)C(C(=O)NC2CC(F)(F)C2)c2ccccc2Cl)c1 (stereo not given in full)	NO
CC(C)OC(=O)OCOP(=O)(CO[C@H](C)Cn1cnc2c(N)ncnc21)OCOC(=O)OC(C)C	YES

Problem: Dear colleague, could you share the recorded outcome for O=C(O)[C@H](CC(=O)N1C[C@H]2CCCC[C@H]2C1)Cc1ccccc1 when you have a moment?
Result: NO

Problem: Dear colleague, could you share the recorded outcome for C=CC(C)(C)c1[nH]c2ccccc2c1C[C@@H]1NC(=O)[C@H](Cc2c[nH]c3ccccc23)NC1=O when you have a moment?
Result: YES

Problem: Dear colleague, could you share the recorded outcome for Cc1ccc(NS(=O)(=O)c2cc3c(cc2Cl)CCC(=O)N3)cc1Cl when you have a moment?
Result: YES

Problem: Dear colleague, could you share the recorded outcome for COC(=O)C1=CO[C@@H](O[C@@H]2O[C@H](CO)[C@@H](O)[C@H](O)[C@H]2O)[C@@H]2[C@@H](C)[C@@H](OC(=O)/C=C/c3ccccc3)[C@@H](O)[C@H]12 when you have a moment?
Result: NO

Problem: Dear colleague, could you share the recorded outcome for COc1ccc(CCC(=O)O)c(O[C@@H]2O[C@H](CO)[C@@H](O)[C@H](O)[C@H]2O)c1 when you have a moment?
Result: NO

Problem: Dear colleague, could you share the recorded outcome for O=C(NCCCN1CCOCC1)c1ccc(Cl)cc1 when you have a moment?
Result: NO

Problem: Dear colleague, could you share the recorded outcome for Cc1cc(C)c(-c2csc(NC(=O)c3ccccc3)n2)c(C)c1 when you have a moment?
Result: YES

Problem: Dear colleague, could you share the recorded outcome for Nc1cc(C(F)(F)F)ccc1S when you have a moment?
Result: YES

Problem: Dear colleague, could you share the recorded outcome for Cc1ccc(NS(=O)(=O)c2ccc3c(c2)CCC(=O)N3)cc1C when you have a moment?
Result: YES

Problem: Dear colleague, could you share the recorded outcome for Nc1nc(N)c(-c2ccccc2)s1 when you have a moment?
Result: NO

Problem: Dear colleague, could you share the recorded outcome for CN[C@@H]1C[C@H]2O[C@@](C)([C@@H]1OC)n1c3ccccc3c3c4c(c5c6ccccc6n2c5c31)C(=O)N[C@H]4O when you have a moment?
Result: YES

Problem: Dear colleague, could you share the recorded outcome for CC(C)=CCCC1(C)/C=C/C(OC(=O)C=C(C)C)C(C)(O)/C=C/C(=O)/C(CO)=C\C1 (stereo not given) when you have a moment?
Result: YES

Problem: Dear colleague, could you share the recorded outcome for CC(=O)Oc1cc(C(C)C)c(OCCN(C)C)cc1C when you have a moment?
Result: NO

Problem: Dear colleague, could you share the recorded outcome for C[n+]1c2cc(N)ccc2cc2ccc(N)cc21 (tested in a mixture with another compound) when you have a moment?
Result: YES

Problem: Dear colleague, could you share the recorded outcome for O=C(Oc1ccccc1C(=O)O)c1ccccc1O when you have a moment?
Result: NO
